Data credit: the kinase profiling compilation of Christmann-Franck et al. (2016)

TARGET: WNK2 (human) (UniProt Q9Y3S1)
Sequence (Q9Y3S1 whole entry, looked up): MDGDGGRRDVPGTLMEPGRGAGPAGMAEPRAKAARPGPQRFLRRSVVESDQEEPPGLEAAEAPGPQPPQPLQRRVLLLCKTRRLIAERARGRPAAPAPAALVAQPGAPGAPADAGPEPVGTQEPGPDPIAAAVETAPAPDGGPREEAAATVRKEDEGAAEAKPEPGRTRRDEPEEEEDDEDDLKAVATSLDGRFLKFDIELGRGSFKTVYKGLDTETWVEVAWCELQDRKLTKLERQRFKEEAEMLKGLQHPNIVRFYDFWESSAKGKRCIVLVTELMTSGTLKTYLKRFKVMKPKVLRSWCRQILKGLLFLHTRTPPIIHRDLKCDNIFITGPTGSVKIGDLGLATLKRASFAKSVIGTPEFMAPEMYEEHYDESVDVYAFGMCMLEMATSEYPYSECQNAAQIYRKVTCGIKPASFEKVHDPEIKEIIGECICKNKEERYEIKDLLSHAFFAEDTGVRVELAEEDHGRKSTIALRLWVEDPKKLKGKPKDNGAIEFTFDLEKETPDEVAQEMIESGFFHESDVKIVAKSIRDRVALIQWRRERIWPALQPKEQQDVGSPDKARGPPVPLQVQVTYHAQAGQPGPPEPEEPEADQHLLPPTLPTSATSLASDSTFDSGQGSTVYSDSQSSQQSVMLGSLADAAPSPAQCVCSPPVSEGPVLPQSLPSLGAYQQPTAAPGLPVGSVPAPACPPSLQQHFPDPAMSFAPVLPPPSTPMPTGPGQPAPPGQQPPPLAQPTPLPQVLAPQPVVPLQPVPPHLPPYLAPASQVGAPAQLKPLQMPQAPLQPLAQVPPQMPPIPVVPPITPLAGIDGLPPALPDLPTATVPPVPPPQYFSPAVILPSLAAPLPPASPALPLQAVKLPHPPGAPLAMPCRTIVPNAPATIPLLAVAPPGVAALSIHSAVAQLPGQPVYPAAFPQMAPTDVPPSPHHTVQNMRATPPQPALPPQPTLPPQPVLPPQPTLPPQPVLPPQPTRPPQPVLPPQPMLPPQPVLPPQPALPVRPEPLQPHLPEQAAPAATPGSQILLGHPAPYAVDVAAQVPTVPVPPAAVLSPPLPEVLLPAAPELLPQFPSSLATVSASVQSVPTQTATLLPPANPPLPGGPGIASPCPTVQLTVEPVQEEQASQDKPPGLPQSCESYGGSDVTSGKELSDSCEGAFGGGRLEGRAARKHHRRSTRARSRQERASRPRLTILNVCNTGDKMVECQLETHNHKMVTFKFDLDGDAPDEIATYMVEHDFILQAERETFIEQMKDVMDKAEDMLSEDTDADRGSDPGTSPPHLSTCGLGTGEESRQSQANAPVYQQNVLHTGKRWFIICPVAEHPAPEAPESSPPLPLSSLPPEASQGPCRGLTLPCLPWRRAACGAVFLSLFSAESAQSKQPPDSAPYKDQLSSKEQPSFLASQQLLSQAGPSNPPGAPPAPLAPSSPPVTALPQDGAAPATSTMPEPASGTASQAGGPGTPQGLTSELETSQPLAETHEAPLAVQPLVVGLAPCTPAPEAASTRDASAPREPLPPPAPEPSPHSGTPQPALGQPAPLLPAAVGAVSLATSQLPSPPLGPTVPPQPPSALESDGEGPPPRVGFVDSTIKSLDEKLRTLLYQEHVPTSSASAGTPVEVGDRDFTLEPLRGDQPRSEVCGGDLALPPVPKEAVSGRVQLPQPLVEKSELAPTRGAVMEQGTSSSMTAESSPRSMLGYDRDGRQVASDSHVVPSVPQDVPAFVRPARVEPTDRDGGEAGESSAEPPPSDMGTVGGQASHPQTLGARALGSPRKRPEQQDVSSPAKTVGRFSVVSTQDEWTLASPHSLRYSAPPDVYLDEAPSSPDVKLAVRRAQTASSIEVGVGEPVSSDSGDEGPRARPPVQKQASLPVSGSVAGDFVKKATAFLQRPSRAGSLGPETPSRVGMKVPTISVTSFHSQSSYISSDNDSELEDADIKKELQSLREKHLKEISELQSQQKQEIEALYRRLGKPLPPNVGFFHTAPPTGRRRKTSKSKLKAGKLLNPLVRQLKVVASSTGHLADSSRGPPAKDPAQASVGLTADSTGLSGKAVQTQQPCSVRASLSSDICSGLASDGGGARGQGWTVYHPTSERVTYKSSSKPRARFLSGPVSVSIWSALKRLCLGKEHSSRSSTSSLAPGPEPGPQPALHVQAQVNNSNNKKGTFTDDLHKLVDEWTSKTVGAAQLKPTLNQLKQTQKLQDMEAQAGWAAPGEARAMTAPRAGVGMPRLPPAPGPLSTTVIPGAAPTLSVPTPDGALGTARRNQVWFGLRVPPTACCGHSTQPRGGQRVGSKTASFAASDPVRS
METHOD_SUMMARY: radiometric filter-binding kinase assay, Kinase HotSpot
CONDITION: compound 0.5 µM; ATP 10 µM
PROPERTY_NAME: residual activity (%)

> print(dat)
                           substance.smiles  readout.unit  measured.number
1                  Nc1nnc2[nH]c3ccccc3nc1-2             %             95.9
2  O=C(Nc1cccc(Nc2cc(Nc3cccc(C(F)(F)F)c3)ncn2)c1)C1CC1             %              109
3         COc1ccc(OC)c2c(=S)c3ccccc3[nH]c12             %             89.8
4        Oc1ccc(Nc2nc(-c3ccc(Cl)cc3)cs2)cc1             %              101
5         O=C(O)/C=C/c1cc(Br)c(Br)c(Br)c1Br             %               93
